assay_method_text: Cytostatic activity against human CEM-DNR-bulk cells after 72 hrs by MTT assay
Assay type: functional, cell-based
pIC50: −log10 of the molar value.
reported_endpoint: pIC50

The cases that follow already have their pIC50 on record.
[[record]]
compound_structure = "CN(C)c1ncnc2c1c(I)cn2[C@@H]1O[C@H](CO)[C@@H](O)[C@H]1O"
result = 7.00

[[record]]
compound_structure = "Nc1nc(N)c2c(-c3ccsc3)cn([C@@H]3O[C@H](CO)[C@@H](O)[C@H]3O)c2n1"
result = "< 4.70"


Kindly consider the entry below.
Documented pIC50 of `Cc1nc(N)c2c(-c3ccccc3)cn([C@@H]3O[C@H](CO)[C@@H](O)[C@H]3O)c2n1` : < 4.70
